Examples of molecules with documented IC50 follow.
# Measurement Description: microbe, parasite or virus in culture
# Settings: Mycobacterium tuberculosis, 96 h, read-out: pIC50 (converted)

- Molecule: "CC(C)N1CC(C(=O)NCc2ccc(S(=O)(=O)N(C)C)cc2)CC1=O (stereo unspecified)"
  IC50: "> 50.1 µM"
- Molecule: "COC(CNC(=O)N1CCSCC1)c1ccc(F)cc1 (stereo unspecified)"
  IC50: "> 501 µM"
- Molecule: "COC(=O)CS(=O)(=O)c1ccc(C)c(Cl)c1"
  IC50: "> 501 µM"
- Molecule: "Cc1cccc(CN2C[C@H]3CC[C@@H]2CN(Cc2[nH]cnc2C)C3)n1"
  IC50: "> 50.1 µM"

Exercise: Quick check: IC50 of `CN(C)c1nc2c(c(N3CCc4ccccc4C3)n1)CCNC2` ?
Solution: > 50.1 µM

Exercise: Fill in the blank: the reported IC50 of `CC(=O)NCc1noc2c1CN(Cc1ccsc1)CC2` is ____.
Solution: > 50.1 µM

* * *

# System: Plasmodium falciparum
# Measurement Description: Calibr Malaria Delayed Death Assay SOP
# Assay type: functional, organism-based
List of pIC50 values.
Lab note: record just the number, no unit beside it.

- Molecule: "CCN1CCCN(S(=O)(=O)c2cc3ccccc3o2)CC1"
  pIC50: 6.321
- Molecule: "CC(C)n1ncc2c1NC(=O)CC21C(=O)Nc2c(Cl)ccc(Cl)c21 (centres undefined)"
  pIC50: 5.929
- Molecule: "CC[C@H]1CN2CC[C@H]1C[C@@H]2CNCc1ccc(OC(F)(F)F)cc1"
  pIC50: 6.073
- Molecule: "Oc1ccc(Cl)cc1CNCc1ccccc1Cl"
  pIC50: 6.1

Exercise: Which value of pIC50 has been reported for O=C(c1scc2c1OCCO2)N1CCOC(CCc2ccccc2)C1 (centres undefined) in the records?
Solution: 6.32

Exercise: pIC50 for `Fc1ccc(Nc2ccc(C3CCN(Cc4ncc[nH]4)CC3)nc2)nc1` ?
Solution: 6.119

Exercise: Entry Cc1ccc2c(c1)CN(C(=O)C1CCCCC1)C(CN(C)C)CO2.Cl (centres undefined) : reported pIC50 = ?
Solution: 6.082

Exercise: Reported pIC50 for `CC(C)(NCc1cccc(O)c1)c1ccc2c(c1)OCO2` : what is it?
Solution: 5.935

Exercise: Fill in: pIC50 of Cc1cccc(CNC(CN2CCN(C)CC2)c2ccccc2)c1 (centres undefined) is ___
Solution: 6.605

Exercise: Give the measured pIC50 of CC(C)Nc1cc(-c2c[nH]nc2C2CCN(C(=O)C3CC3)C2)ccn1 (centres undefined) .
Solution: 6.541

Exercise: What value of pIC50 has been reported for the following molecule? CC(C)c1nn(C)c(Cl)c1CNCC(O)c1cccc(F)c1.Cl (centres undefined)
Solution: 6.252

Exercise: Entry under review: `CN(C)CCN(C)C(=O)Cn1cccc2cc(-c3ccc(F)cc3)nc1-2` . Reported pIC50?
Solution: 6.323

Exercise: Entry NCC1CCN(C2CCN(c3ccc(-c4ccco4)cc3)CC2)C1 (centres undefined) has what pIC50?
Solution: 6.504

Exercise: // query pIC50 value for entry CC(N)Cc1ccccc1Sc1ccccc1.O=C(O)/C=C\C(=O)O (centres undefined)
Solution: 6.082

Exercise: # pIC50 lookup, item `CC(C)Oc1ncnc2c1CCN(Cc1ccco1)CC2.O=C(O)C(F)(F)F`
Solution: 6.106

Exercise: What measured pIC50 goes with CNc1cc(C)nc(NC2CCCN(C3Cc4ccccc4C3)C2)n1 (centres undefined) ?
Solution: 6.074

Exercise: Entry `Cc1ccnc(NC(=O)c2[nH]nc(C(C)C)c2Br)c1` : reported pIC50 = ?
Solution: 6.433

Exercise: Record request: pIC50 value, item CC(O)c1cccc(Nc2nc(NCCO)c3ccccc3n2)c1 (centres undefined)
Solution: 6.601

Exercise: Field request: pIC50 | item: Cc1nc[nH]c1CN(C)CC1CCCN(CCc2ccc(Cl)cc2)C1 (centres undefined)
Solution: 6.162

Exercise: Please look up its pIC50: `CN[C@@H](C)C(=O)N(Cc1cccc(C)c1)Cc1ccccc1OC`
Solution: 6.428

Exercise: Find the recorded pIC50 belonging to `CNC(=O)CCN(C)CC1(c2ccc(Br)cc2)CC1` and report it.
Solution: 6.438

Exercise: Consider the molecule Cc1cc(C)n(C2CN(CC(O)c3ccc(C(F)(F)F)cc3)C2)n1 (centres undefined) and give its measured pIC50.
Solution: 5.98

Exercise: Sample `Cc1ccc(CN(Cc2cccnc2)C2CC(C)(C)NC(C)(C)C2)s1.O=C(O)CC(O)(CC(=O)O)C(=O)O` — what was its pIC50?
Solution: 6.05

Exercise: Recorded pIC50 for `Cc1ccc(C2(CN(C)Cc3sccc3C)CCNCC2)nc1` , please?
Solution: 6.117

Exercise: Tell me the measured pIC50 of Cc1ccc(CNCc2cccc3cccnc23)c(OC2CCOC2)c1 (centres undefined) , please.
Solution: 6.31

Exercise: Quick check: pIC50 of `Cc1ccc(CN(CCN(C)C)Cc2c(C)nc3sccn23)o1.O=C(O)CC(O)(CC(=O)O)C(=O)O` ?
Solution: 6.093

* * *

# Test system: Leishmania donovani
# Measurement Description: Leishmania intramacrophage assay
# Type: functional, organism-based
# Settings: Leishmania donovani
Metric Name: IC50

- Compound: "COc1ccc(Cl)cc1CNCCCn1ccnc1"
  Metric Name: "IC50"
  Recorded Value: "> 50.1 µM"
- Compound: "CC(C)c1n[nH]c(C(=O)Nc2ccncc2)c1Br"
  Metric Name: "IC50"
  Recorded Value: "> 50.1 µM"
- Compound: "CC(C)N1CCCC(C(=O)N2CCN(c3nsc4ccccc34)CC2)C1 (configuration not stated)"
  Metric Name: "IC50"
  Recorded Value: "30.3 µM"

Exercise: Please provide the recorded IC50 for `CN(CC1CC1)c1ccc2ccc(C(=O)NCCN3CCOCC3)cn12` , tested on Leishmania donovani.
Solution: > 50.1 µM

Exercise: IC50 of `c1nc(CCNc2nc(C3CC3)nc3c2CCNCC3)c[nH]1` on Leishmania donovani?
Solution: > 50.1 µM

Exercise: Enter reported IC50 observed with Leishmania donovani for `CCN(Cc1c(F)cccc1Cl)c1cc(C2CCNCC2)nc(C)n1`
Solution: 3.56 µM

Exercise: Item `C1CCc2nnc(CNc3nc(C4CC4)nc4c3CCNCC4)n2CC1` with Leishmania donovani - IC50?
Solution: > 50.1 µM

* * *

# Measurement Description: microbe, parasite or virus in culture
# Settings: Mycobacterium tuberculosis, 96 h, read-out: pIC50 (converted)
Each record is given yes (1) if its reported IC50 is strictly below 100 µM. Records at or above 100 µM are given no (0).

Example results:
- Molecule: "NS(=O)(=O)c1cccc2c1CCCN2Cc1nccs1"
  Class Assignment: "no (0)"
- Molecule: "CCc1nc(CNc2ccc(C#N)nc2)cs1"
  Class Assignment: "yes (1)"
- Molecule: "NC(=O)c1ccsc1NC(=O)CCN1CCCCC1"
  Class Assignment: "no (0)"

Exercise: Lab note: IC50 threshold 100 µM. Does this molecule come in strictly under it? Cc1cccc(CN2CCCC3(CCN(C4CCSCC4)C3)C2=O)c1 (stereo unspecified)
Solution: yes (1)

Exercise: Please let me know if `CC(C)Cc1ncc2c(n1)CN(c1nccc(NC(C)C)n1)C2` shows IC50 below 100 µM.
Solution: yes (1)

Exercise: Input `CCOc1cccc(CNc2nc(N(C)C)n[nH]2)c1` ; condition: IC50 strictly below 100 µM. Does it hold?
Solution: yes (1)

Exercise: Say whether its IC50 is strictly beneath 100 µM. Entry: `CCc1ccc(-c2cc(C(F)(F)F)nc(N3CCC(N)CC3)n2)cc1`
Solution: yes (1)

Exercise: Does Cc1ccc(C(N)c2ccccn2)cc1 (stereo unspecified) have IC50 strictly under 100 µM?
Solution: no (0)

Exercise: Take the molecule `COC(=O)[C@H](C)NC(=O)c1noc2c1CCCCC2` and say whether its IC50 is less than 100 µM.
Solution: no (0)

Exercise: Is IC50 of Clc1cccc(C2CCN(c3ncnc4c3CCNC4)C2)c1 (stereo unspecified) strictly below 100 µM?
Solution: yes (1)

Exercise: Hi there! Is IC50 for `Clc1ccc(-c2nnc([C@H]3CCN(C4CCCCC4)C3)o2)cc1` below 100 µM, do you know?
Solution: yes (1)

Exercise: Say whether its IC50 is strictly beneath 100 µM. Entry: Cc1nc(N)cc(N2CCCC(COc3cccc(F)c3)C2)n1 (stereo unspecified)
Solution: yes (1)

Exercise: Please let me know if CCOc1ncc(C(=O)NCC(C)(O)C(C)C)cc1Cl (stereo unspecified) shows IC50 below 100 µM.
Solution: no (0)

Exercise: Does the reported IC50 of the following molecule sit strictly below 100 µM? `O=C(NCC1CC1)c1cccc2nn[nH]c12`
Solution: no (0)

Exercise: For `CCOC(=O)Cn1nnc2ccccc2c1=O` , is the recorded IC50 below the cut-off of 100 µM?
Solution: no (0)

Exercise: Report whether reported IC50 is lower than 100 µM (strictly) for `CN(Cc1ccco1)C(=O)CCc1ccc(C#N)cc1`
Solution: yes (1)

Exercise: Check if IC50 falls below 100 µM for `CC(C)CCNC(=O)Nc1ccc(S(C)(=O)=O)cc1` .
Solution: no (0)

Exercise: Strictly below 100 µM: is that where IC50 of `Cc1noc(NC(=O)c2ccc(C)c(F)c2)n1` sits?
Solution: yes (1)

Exercise: Please let me know if `COc1cccc(-c2noc(-c3ccc(NCCCO)nc3)n2)c1OC` shows IC50 below 100 µM.
Solution: yes (1)

Exercise: # TODO verify IC50 < 100 µM strictly for this molecule: `COc1ccc(N2CCCNCC2)cc1`
Solution: no (0)
